Several reports have described pIC50 for UniProtKB P00533; a selection of those results is presented here.
pIC50: −log10 of the molar value.

C=C(C)Cn1c(O)c(O)sc1=NN=c1scc(O)n1C ... < 4.00
CC(C)Nc1nc(-c2ccco2)nc2ccc(C=CC(C)(C)O)cc12 ... < 4.00
O=C1Nc2ccc(Br)cc2C1=C1Nc2ccccc2C1=O ... < 5.00

Request: Form: Entry = `COc1cc2c(cc1Nc1ncc(Cl)c(Nc3ccc4nccnc4c3P(C)(C)=O)n1)-c1cnn(C)c1CCN2C` | System = UniProtKB P00533 | pIC50 = ____
Result: > 9.00
